# target: shFcRn (human, UniProt P55899)
# Sequence (P55899 24-297, chain 1 of 2): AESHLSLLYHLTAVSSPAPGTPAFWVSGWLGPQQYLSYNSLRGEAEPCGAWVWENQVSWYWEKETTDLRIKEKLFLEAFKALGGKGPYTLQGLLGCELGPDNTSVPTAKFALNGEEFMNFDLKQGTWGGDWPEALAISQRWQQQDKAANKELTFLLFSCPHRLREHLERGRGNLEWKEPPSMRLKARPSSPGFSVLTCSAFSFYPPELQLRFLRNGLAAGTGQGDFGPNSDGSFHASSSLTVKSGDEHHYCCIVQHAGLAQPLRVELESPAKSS
# Sequence (chain, as listed by the source, chain 2 of 2): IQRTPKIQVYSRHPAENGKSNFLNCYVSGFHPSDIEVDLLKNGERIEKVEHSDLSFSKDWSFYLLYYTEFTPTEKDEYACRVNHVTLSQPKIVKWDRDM
# assayRemarks: SPR pH 7.4
endpoint: koff (s⁻¹)

INSERT INTO measurements (binder, unitssymbol, assayresult) VALUES
  ('A12-H04 (antibody) chain 1: EVQLVESGGGLVQPGRSLRLSCAASGFTFDEYGMHWVRQAPGKGLEWVSGVSWNSGSIAYADSVRGRFTISRDNAKNSLYLQMNSLRAEDTALYYCAKGRLLDVWGQGTTVTVSS chain 2: QSALTQPASVSGSPGQSITISCTGSSSDVGGYNYVSWYQQHPGKAPKLMIYDVTKRPSGVSNRFSGSKSGNTASLTISGLQAEDEADYYGAYSNTNFYVFGTGTKVTVL', 's⁻¹', 0.00235),
  ('A11-C07 (antibody) chain 1: EVQLVESGGGLVQPGRSLRLSCAASGFTFDEYGMHWVRQAPGKGLEWVSGVSWNSGSIAYADSVRGRFTISRDNAKNSLYLQMNSLRAEDTALYYCAKGRYSDVWGQGTTVTVSS chain 2: QSALTQPASVSGSPGQSITISCTGSSSDVGGYNYVSWYQQHPGKAPKLMIYDVTKRPSGVSNRFSGSKSGNTASLTISGLQAEDEADYYASYSSNTFYVFGTGTKVTVL', 's⁻¹', 0.00248),
  ('A12-E05 (antibody) chain 1: EVQLVESGGGLVQPGRSLRLSCAASGFTFDEYGMHWVRQAPGKGLEWVSGVSWNSGSIAYADSVRGRFTISRDNAKNSLYLQMNSLRAEDTALYYCAKGRILDVWGQGTTVTVSS chain 2: QSALTQPASVSGSPGQSITISCTGSSSDVGGYNYVSWYQQHPGKAPKLMIYDVTKRPSGVSNRFSGSKSGNTASLTISGLQAEDEADYYGSYNNSTFYVFGTGTKVTVL', 's⁻¹', 0.00222),
  ('A12-F02 (antibody) chain 1: EVQLVESGGGLVQPGRSLRLSCAASGFTFDEYGMHWVRQAPGKGLEWVSGVSWNSGSIAYADSVRGRFTISRDNAKNSLYLQMNSLRAEDTALYYCAKGRYLDVWGQGTTVTVSS chain 2: QSALTQPASVSGSPGQSITISCTGSSSDVGGYNYVSWYQQHPGKAPKLMIYDVTKRPSGVSNRFSGSKSGNTASLTISGLQAEDEADYYGSYDSNTFYVFGTGTKVTVL', 's⁻¹', 0.000225);

Values compiled from patent EP3010938.
